Give IC50 for every item shown.
Target: Bcr/Abl fusion protein (Homo sapiens)
Assay: Inhibition of human recombinant full length His-tagged Bcr-Abl expressed in baculovirus expression system using tyrosine-2 peptide as substrate after 1 hr in presence of […] ATP by FRET based Z'-LYTE assay
API: value field is a number in µM; no unit string.

[Q] Consider the compound CCc1ccc(C(=O)Nc2cccc(C(F)(F)F)c2)cc1-c1cccc(-c2cnc3cnccn23)c1 . State its measured IC50.
[A] 2.22

[Q] Hello, please tell me recorded IC50 for this one: CCc1ccc(C(=O)Nc2cccc(C(F)(F)F)c2)cc1-c1cc(C#N)cc(-c2cnc3cnccn23)c1
[A] 5.64

[Q] In one line, give reported IC50 of the entry Cc1ccc(C(=O)Nc2cccc(C(F)(F)F)c2)cc1-c1cccc(-c2cnc3cnccn23)c1 .
[A] 0.237

[Q] Give IC50 for CCc1ccc(C(=O)Nc2cccc(CN3CCN(C)CC3)c2)cc1-c1cccc(-c2cnc3cnccn23)c1
[A] 0.989

----------
Molecular target: Bcr/Abl fusion protein (Homo sapiens, UniProt P00519)
Sequence (P00519 whole entry, the tested form may be a part): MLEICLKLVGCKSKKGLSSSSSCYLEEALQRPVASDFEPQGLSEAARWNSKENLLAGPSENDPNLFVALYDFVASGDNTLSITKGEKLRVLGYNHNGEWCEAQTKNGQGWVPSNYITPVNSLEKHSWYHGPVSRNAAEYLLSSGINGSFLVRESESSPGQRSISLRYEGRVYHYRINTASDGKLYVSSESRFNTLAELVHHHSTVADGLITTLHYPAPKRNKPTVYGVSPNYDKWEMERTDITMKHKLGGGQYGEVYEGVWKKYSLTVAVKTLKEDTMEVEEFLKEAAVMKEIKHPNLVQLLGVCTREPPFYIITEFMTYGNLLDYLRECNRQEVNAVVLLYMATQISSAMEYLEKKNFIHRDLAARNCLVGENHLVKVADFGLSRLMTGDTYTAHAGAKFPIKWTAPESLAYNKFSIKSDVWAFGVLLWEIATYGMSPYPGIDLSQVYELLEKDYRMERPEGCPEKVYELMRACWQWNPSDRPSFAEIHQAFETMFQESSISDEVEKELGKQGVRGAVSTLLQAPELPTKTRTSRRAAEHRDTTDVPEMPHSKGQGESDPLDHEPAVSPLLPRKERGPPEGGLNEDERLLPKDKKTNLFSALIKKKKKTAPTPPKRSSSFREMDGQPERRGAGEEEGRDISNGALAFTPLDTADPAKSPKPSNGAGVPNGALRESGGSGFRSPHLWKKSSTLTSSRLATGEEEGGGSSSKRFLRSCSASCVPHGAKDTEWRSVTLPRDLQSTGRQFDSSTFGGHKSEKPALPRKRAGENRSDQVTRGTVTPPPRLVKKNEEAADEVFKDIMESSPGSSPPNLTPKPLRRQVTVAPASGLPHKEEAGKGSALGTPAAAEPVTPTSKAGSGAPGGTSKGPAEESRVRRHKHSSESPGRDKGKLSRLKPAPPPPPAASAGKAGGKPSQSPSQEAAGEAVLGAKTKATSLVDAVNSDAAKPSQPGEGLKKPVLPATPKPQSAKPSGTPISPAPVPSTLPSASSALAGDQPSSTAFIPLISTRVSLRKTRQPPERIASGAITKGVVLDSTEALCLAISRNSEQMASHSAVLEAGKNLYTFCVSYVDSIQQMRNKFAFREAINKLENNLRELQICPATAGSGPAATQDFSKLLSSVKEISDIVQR
Sequence (P11274 whole entry, further chain, the tested form may be a part): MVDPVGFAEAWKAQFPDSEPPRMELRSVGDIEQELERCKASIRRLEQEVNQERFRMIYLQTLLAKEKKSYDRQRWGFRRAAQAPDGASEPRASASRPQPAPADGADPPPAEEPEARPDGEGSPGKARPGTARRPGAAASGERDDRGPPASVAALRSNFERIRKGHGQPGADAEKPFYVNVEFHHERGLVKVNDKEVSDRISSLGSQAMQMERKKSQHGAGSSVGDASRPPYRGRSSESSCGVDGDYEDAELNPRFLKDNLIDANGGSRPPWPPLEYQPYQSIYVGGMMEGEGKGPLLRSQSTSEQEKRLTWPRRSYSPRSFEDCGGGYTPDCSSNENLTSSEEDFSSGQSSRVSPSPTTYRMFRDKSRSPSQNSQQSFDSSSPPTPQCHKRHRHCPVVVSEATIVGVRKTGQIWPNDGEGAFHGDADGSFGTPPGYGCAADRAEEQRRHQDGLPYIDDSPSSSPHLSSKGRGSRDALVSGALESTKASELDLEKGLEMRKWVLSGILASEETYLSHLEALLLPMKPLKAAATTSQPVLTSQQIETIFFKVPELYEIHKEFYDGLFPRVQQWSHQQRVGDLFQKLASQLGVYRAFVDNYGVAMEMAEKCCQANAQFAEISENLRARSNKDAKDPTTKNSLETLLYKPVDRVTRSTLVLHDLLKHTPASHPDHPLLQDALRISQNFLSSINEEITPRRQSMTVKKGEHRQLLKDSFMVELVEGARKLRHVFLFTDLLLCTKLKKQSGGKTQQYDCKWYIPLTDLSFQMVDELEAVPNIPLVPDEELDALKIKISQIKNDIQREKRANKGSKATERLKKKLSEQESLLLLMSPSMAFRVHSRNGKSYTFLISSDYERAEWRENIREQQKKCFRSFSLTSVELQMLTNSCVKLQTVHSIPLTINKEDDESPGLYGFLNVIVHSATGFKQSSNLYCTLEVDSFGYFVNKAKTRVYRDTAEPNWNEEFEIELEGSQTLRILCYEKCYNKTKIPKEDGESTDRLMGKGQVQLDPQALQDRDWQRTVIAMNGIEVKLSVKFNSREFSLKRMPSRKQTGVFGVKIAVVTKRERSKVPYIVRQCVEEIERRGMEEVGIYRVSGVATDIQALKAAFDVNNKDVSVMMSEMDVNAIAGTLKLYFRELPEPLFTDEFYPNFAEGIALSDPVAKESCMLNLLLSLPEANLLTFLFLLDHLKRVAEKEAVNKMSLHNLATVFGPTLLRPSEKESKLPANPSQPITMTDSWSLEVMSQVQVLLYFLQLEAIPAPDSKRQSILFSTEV
Experiment: Inhibition of human recombinant full length His-tagged Bcr-Abl expressed in baculovirus expression system using tyrosine-2 peptide as substrate after 1 hr in presence of […] ATP by FRET based Z'-LYTE assay
Could you please report measured IC50 for the items listed next?
The response must be a number in µM with no trailing unit.

[Q] Answer with reported IC50 of CCc1ccc(C(=O)Nc2ccc(C(F)(F)F)cc2)cc1-c1cccc(-c2cnc3cnccn23)c1
[A] 4.99

[Q] Answer with the recorded IC50 of CCc1ccc(C(=O)Nc2cccc(C(F)(F)F)c2)cc1-c1cc(OC)cc(-c2cnc3cnccn23)c1 only.
[A] 3.7

[Q] For the compound CCc1ccc(C(=O)Nc2ccccc2)cc1-c1cccc(-c2cnc3cnccn23)c1 , give its reported IC50.
[A] 5.12

----------
Biological target: Epithelial discoidin domain-containing receptor 1 (Homo sapiens, UniProt Q08345)
Sequence (Q08345 whole entry, the tested form may be a part): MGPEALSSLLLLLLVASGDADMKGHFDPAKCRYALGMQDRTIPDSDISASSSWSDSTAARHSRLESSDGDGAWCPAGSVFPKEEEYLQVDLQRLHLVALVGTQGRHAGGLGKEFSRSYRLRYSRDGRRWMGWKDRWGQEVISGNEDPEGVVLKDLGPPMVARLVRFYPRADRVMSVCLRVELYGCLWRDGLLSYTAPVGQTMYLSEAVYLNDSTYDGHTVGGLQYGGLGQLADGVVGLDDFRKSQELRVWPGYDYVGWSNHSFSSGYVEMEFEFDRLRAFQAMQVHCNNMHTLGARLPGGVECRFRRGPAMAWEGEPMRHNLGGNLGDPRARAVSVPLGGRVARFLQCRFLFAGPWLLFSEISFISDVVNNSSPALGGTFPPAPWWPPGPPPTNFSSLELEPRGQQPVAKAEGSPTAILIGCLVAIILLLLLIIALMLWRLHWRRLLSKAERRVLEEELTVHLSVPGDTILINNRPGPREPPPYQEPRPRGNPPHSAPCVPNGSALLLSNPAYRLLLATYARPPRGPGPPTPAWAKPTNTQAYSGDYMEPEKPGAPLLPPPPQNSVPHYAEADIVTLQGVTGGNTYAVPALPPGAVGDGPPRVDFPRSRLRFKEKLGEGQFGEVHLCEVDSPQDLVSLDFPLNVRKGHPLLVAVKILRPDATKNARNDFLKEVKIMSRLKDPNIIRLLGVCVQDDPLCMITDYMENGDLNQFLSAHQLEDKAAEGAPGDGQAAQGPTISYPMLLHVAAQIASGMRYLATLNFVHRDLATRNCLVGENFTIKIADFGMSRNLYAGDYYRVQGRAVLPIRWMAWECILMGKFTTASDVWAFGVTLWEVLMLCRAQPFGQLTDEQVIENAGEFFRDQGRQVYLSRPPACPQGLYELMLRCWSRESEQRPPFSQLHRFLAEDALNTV
Test: Inhibition of recombinant human GST-tagged DDR1 catalytic domain (440 to 876 residues) expressed in baculovirus expression system using Fluorescein-poly GAT as substrate incubated for 1 hr in presence of ATP by LanthaScreen Eu kinase assay
Would you kindly list IC50 for each of these molecules?

[Q] Give the measured IC50 for CCc1ccc(C(=O)Nc2cc(C(F)(F)F)ccc2F)cc1-c1cc(C)cc(-c2cnc3cnccn23)c1
[A] 0.0365 µM

[Q] Name the recorded IC50 of the item CCc1ccc(C(=O)Nc2cc(CN3CCN(C)CC3)cc(C(F)(F)F)c2)cc1-c1cccc(-c2cnc3cnccn23)c1 in your answer.
[A] 0.0087 to 0.0096 µM

[Q] Annotate the molecule CCc1ccc(C(=O)Nc2cccc(C(F)(F)F)c2)cc1-c1cc(Cl)cc(-c2cnc3cnccn23)c1 with its measured IC50.
[A] 0.0213 µM

[Q] Answer with the recorded IC50 of CCc1ccc(C(=O)Nc2cccc(C(F)(F)F)c2)cc1-c1cc(F)cc(-c2cnc3cnccn23)c1 only.
[A] 0.0303 µM

[Q] Provide one value: measured IC50 of CCc1ccc(C(=O)Nc2cccc(C(F)(F)F)c2)cc1-c1cc(-c2cnc3cnccn23)cc(C(C)C)c1
[A] 0.0669 µM

[Q] State its IC50: CCc1ccc(C(=O)Nc2cccc(C(F)(F)F)c2)cc1-c1cc(OC)cc(-c2cnc3cnccn23)c1
[A] 0.0165 µM

[Q] Let me know recorded IC50 for CCc1ccc(C(=O)Nc2cc(CN3CCN(C)CC3)cc(C(F)(F)F)c2)cc1-c1cccc(-c2cnc3ccnn3c2)c1 , thanks.
[A] 0.359 µM

[Q] Query IC50 for CCc1ccc(C(=O)Nc2ccccc2C(F)(F)F)cc1-c1cccc(-c2cnc3cnccn23)c1
[A] 4.88 µM

----------
Molecular target: Calcium/calmodulin-dependent protein kinase type 1D (Homo sapiens)
Sequence (Q8IU85 whole entry, the tested form may be a part): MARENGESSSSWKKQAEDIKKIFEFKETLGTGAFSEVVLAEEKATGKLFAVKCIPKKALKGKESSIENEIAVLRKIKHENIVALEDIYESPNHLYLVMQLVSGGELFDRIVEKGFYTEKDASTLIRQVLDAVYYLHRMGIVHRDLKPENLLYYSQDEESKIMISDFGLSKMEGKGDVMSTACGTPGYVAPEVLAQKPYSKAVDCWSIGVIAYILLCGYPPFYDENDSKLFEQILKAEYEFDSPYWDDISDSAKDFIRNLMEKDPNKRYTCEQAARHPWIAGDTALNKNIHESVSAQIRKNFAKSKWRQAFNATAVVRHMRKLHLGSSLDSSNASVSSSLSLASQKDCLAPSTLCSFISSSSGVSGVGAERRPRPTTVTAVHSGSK
Assay: Binding affinity to wild-type human partial length CAMK1D (M1 to K299 residues) expressed in bacterial expression system after 1 hr by Kinomescan method
pKd: −log10 of the molar value.
measure.name: pKd

[Q] Fetch value of pKd on Calcium/calmodulin-dependent protein kinase type 1D (Homo sapiens) for CCc1ccc(C(=O)Nc2cc(F)cc(C(F)(F)F)c2)cc1-c1cc(C)cc(-c2cnc3cnccn23)c1 .
[A] < 6.00

----------
Molecular target: Discoidin domain-containing receptor 2 (Homo sapiens)
Assay: Inhibition of recombinant human GST-tagged DDR2 cytoplasmic domain (427 to 855 residues) expressed in baculovirus expression system using Fluorescein-poly GAT as substrate incubated for 1 hr in presence of ATP by LanthaScreen Eu kinase assay
measure.name: pIC50
Give only the number. pIC50 is defined as minus log10 of concentration in molar units.

[Q] Consider the molecule CCc1ccc(C(=O)Nc2cc(CN3CCN(C)CC3)cc(C(F)(F)F)c2)cc1-c1cccc(-c2cnc3ccnn3c2)c1 . State its measured pIC50.
[A] 6.71

[Q] Report pIC50 for CCc1ccc(C(=O)Nc2cccc(C(F)(F)F)c2)cc1-c1cc(-c2cnc3cnccn23)ccc1C
[A] 6.21

[Q] Specify measured pIC50 for CCc1ccc(C(=O)Nc2cccc(C(F)(F)F)c2)cc1-c1cc(C)cc(-c2cnc3cnccn23)c1 .
[A] 5.76

[Q] Given CCc1ccc(C(=O)Nc2cccc(C(F)(F)F)c2)cc1-c1cccc(-c2cnc3cnccn23)c1C , respond with its pIC50.
[A] 6.18

[Q] Complete the entry with pIC50 for CCc1ccc(C(=O)Nc2cc(F)cc(C(F)(F)F)c2)cc1-c1cc(C)cc(-c2cnc3cnccn23)c1
[A] 5.76

[Q] Complete the entry with pIC50 for CCc1ccc(C(=O)Nc2cccc(C(F)(F)F)c2)cc1-c1cccc(-c2cnc3cnccn23)c1
[A] 6.14

[Q] Quick one: give measured pIC50 for CCc1ccc(C(=O)Nc2cccc(C(F)(F)F)c2)cc1-c1cc(-c2cnc3cnccn23)cc(C(C)C)c1
[A] 5.58

[Q] State its pIC50: CCc1ccc(C(=O)Nc2cc(CN3CCN(C)CC3)cc(C(F)(F)F)c2)cc1-c1cccc(-c2cnc3cnccn23)c1
[A] 7.18

[Q] For the molecule CCc1cc(-c2cc(C(=O)Nc3cccc(C(F)(F)F)c3)ccc2CC)cc(-c2cnc3cnccn23)c1 , give its measured pIC50 value.
[A] 5.49

[Q] Using known records, supply pIC50 for CCc1ccc(C(=O)Nc2cccc(C(F)(F)F)c2)cc1-c1cc(F)cc(-c2cnc3cnccn23)c1
[A] 5.88

[Q] Supply pIC50 value. Item: Cc1ccc(C(=O)Nc2cccc(C(F)(F)F)c2)cc1-c1cccc(-c2cnc3cnccn23)c1
[A] 6.87

[Q] Input CCc1ccc(C(=O)Nc2cccc(C(F)(F)F)c2)cc1-c1cc(OC)cc(-c2cnc3cnccn23)c1 , output reported pIC50.
[A] 5.99

----------
Molecular target: Epithelial discoidin domain-containing receptor 1 (Homo sapiens, UniProt Q08345)
Experiment: Inhibition of recombinant human GST-tagged DDR1 catalytic domain (440 to 876 residues) expressed in baculovirus expression system using Fluorescein-poly GAT as substrate incubated for 1 hr in presence of ATP by LanthaScreen Eu kinase assay
What IC50 was measured for each of the following?
Answer format: numeric, nM implied, no suffix.

[Q] Tell me IC50 reported for CCc1ccc(C(=O)Nc2cccc(C(F)(F)F)c2F)cc1-c1cc(C)cc(-c2cnc3cnccn23)c1
[A] 73.8

[Q] Note IC50 for the compound shown: Cc1ccc(C(=O)Nc2cccc(C(F)(F)F)c2)cc1-c1cccc(-c2cnc3cnccn23)c1
[A] 9.2

[Q] Give me measured IC50, please, for this compound: CCc1ccc(C(=O)Nc2cc(F)cc(C(F)(F)F)c2)cc1-c1cc(C)cc(-c2cnc3cnccn23)c1
[A] 23.8

[Q] Quote IC50 reported for CCc1ccc(C(=O)Nc2cccc(C(F)(F)F)c2)cc1-c1ccc(C)c(-c2cnc3cnccn23)c1 please.
[A] 108

[Q] State its IC50: CCc1ccc(C(=O)Nc2cccc(CN3CCN(C)CC3)c2)cc1-c1cccc(-c2cnc3cnccn23)c1
[A] 357

[Q] Check the records and state IC50 for CCc1ccc(C(=O)Nc2cccc(C(F)(F)F)c2)cc1-c1cc(C#N)cc(-c2cnc3cnccn23)c1
[A] 15.6

[Q] Tell us which IC50 value is on record for CC(C)c1ccc(C(=O)Nc2cccc(C(F)(F)F)c2)cc1-c1cccc(-c2cnc3cnccn23)c1
[A] 1260

[Q] Return value of IC50 for input CCc1ccc(C(=O)Nc2cccc(C(F)(F)F)c2)cc1-c1cccc(-c2cnc3cnccn23)c1C , no commentary.
[A] 30.1

----------
Biological target: Discoidin domain-containing receptor 2 (Homo sapiens)
measure.name: pKd
Schema: pKd number; meaning minus log10 of the concentration expressed in molar units.

[Q] Determine its reported pKd: CCc1ccc(C(=O)Nc2cc(F)cc(C(F)(F)F)c2)cc1-c1cc(C)cc(-c2cnc3cnccn23)c1
[A] 7.07

----------
Molecular target: Discoidin domain-containing receptor 2 (Homo sapiens, UniProt Q16832)
Sequence (Q16832 whole entry): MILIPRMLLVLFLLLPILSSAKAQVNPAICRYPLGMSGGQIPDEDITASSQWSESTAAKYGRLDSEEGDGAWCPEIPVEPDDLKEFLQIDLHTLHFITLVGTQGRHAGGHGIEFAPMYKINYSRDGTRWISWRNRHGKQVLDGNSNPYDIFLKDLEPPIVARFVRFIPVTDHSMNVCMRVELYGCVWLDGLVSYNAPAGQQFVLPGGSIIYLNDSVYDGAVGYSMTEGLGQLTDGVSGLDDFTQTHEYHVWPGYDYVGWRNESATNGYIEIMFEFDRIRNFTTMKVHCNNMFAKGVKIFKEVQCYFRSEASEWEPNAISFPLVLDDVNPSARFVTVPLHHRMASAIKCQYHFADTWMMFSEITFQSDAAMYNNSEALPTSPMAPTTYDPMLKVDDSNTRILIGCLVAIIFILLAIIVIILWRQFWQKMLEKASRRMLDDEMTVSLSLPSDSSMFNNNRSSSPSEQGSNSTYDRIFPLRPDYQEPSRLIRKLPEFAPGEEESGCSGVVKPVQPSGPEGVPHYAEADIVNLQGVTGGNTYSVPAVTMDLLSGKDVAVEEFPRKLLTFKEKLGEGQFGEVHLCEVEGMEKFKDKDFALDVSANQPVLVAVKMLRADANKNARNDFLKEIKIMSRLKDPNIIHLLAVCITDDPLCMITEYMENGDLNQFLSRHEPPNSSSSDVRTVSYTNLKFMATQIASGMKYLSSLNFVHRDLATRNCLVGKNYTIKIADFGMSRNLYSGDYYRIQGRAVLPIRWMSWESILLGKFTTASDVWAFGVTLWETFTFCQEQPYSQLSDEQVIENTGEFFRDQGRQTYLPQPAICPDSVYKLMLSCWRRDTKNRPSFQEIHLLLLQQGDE
Assay: Inhibition of recombinant human GST-tagged DDR2 cytoplasmic domain (427 to 855 residues) expressed in baculovirus expression system using Fluorescein-poly GAT as substrate incubated for 1 hr in presence of ATP by LanthaScreen Eu kinase assay
pIC50: −log10 of the molar value.
Assignment: determine reported pIC50 for the given compounds.

[Q] In one line, give reported pIC50 of the entry CCc1ccc(C(=O)Nc2cccc(C(F)(F)F)c2)cc1-c1ccc(C)c(-c2cnc3cnccn23)c1 .
[A] < 5.00

[Q] Please report pIC50 for the following compound: CC(C)c1ccc(C(=O)Nc2cccc(C(F)(F)F)c2)cc1-c1cccc(-c2cnc3cnccn23)c1
[A] < 5.00

[Q] Identify measured pIC50 corresponding to CCc1ccc(C(=O)Nc2cccc(C(F)(F)F)c2)cc1-c1cc(C#N)cc(-c2cnc3cnccn23)c1
[A] 6.02

[Q] Item CCc1ccc(C(=O)Nc2ccc(F)c(C(F)(F)F)c2)cc1-c1cc(C)cc(-c2cnc3cnccn23)c1 : provide pIC50
[A] < 5.30

[Q] Name the recorded pIC50 of the item CCc1ccc(C(=O)Nc2cccc(C(F)(F)F)c2)cc1-c1cc(Cl)cc(-c2cnc3cnccn23)c1 in your answer.
[A] 5.97

[Q] State its pIC50: CCc1ccc(C(=O)Nc2ccccc2)cc1-c1cccc(-c2cnc3cnccn23)c1
[A] < 5.00

[Q] State its pIC50: CCc1ccc(C(=O)Nc2ccccc2C(F)(F)F)cc1-c1cccc(-c2cnc3cnccn23)c1
[A] < 5.00
